system: COLO205 cells; test: Inhibitory activity against COLO205 cell proliferation (CellTiter-Glo); format: cell-based; conditions: Homo sapiens, COLO 205, 72 h; 3 days incubation

>  <compound>
O=c1[nH]c(C2CC3CCN2CC3)nc2c3c(oc12)-c1c[nH]nc1CCC3 (single isomer, unassigned)

>  <IC50>
51.7 nM

$$$$

----------
biological target: CDC7/DBF4 (Homo sapiens, UniProt O00311); experiment: Inhibitory effect against activity of Cdc7/DBF4 kinase (ADP-Glo kit); format: biochemical; parameters: purchased Promega; conditions: 10 μM ATP, 25° C., 60 min
Sequence (O00311 whole entry): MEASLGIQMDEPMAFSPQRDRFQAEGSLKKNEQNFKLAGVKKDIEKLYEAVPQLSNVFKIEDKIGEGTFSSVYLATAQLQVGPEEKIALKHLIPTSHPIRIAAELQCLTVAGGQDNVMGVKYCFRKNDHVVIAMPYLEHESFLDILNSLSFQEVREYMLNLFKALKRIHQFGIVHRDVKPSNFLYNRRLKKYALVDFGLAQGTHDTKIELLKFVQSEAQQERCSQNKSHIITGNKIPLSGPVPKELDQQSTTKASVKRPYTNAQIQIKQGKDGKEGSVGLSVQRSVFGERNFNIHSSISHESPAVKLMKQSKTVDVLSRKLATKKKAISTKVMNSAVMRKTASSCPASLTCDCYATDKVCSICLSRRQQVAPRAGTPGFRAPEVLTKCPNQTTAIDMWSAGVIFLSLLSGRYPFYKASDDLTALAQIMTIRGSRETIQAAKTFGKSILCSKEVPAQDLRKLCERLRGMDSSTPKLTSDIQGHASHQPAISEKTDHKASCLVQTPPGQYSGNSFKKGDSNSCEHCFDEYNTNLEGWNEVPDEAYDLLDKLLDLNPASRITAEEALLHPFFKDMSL
Sequence (Q9UBU7 whole entry partner): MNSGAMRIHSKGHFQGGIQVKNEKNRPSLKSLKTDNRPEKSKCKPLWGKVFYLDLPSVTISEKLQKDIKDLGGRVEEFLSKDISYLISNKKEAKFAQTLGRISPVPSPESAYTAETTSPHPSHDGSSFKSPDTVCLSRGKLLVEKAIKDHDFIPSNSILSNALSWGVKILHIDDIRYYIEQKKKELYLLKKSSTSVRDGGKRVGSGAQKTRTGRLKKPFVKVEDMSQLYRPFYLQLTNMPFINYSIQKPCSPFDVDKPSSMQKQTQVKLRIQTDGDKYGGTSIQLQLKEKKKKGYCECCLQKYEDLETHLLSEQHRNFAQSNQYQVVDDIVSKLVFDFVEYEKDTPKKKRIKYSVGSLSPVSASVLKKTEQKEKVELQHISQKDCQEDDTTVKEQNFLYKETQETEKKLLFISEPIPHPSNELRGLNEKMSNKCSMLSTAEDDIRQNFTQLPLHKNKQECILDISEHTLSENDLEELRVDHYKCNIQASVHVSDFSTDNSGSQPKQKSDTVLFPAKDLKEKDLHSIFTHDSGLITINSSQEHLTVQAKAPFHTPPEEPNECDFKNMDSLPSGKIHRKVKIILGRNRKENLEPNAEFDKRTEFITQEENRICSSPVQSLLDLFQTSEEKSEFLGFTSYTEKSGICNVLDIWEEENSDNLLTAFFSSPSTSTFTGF
Assign labels as follows, please: fulfilled for IC50 below 2 nM; not fulfilled for IC50 equal to or exceeding 2 nM.

>  <molecule>
O=c1[nH]c([C@@H]2CCCN2)nc2c3c(oc12)-c1c[nH]nc1CCC3

>  <test system>
CDC7/DBF4 (Homo sapiens, UniProt O00311)

>  <cat>
fulfilled

$$$$
>  <molecule>
CN1CCC[C@H]1c1nc2c3c(oc2c(=O)[nH]1)-c1c[nH]nc1CCC3

>  <test system>
CDC7/DBF4 (Homo sapiens, UniProt O00311)

>  <cat>
fulfilled

$$$$
>  <molecule>
O=c1[nH]c(C2CC3CCN2CC3)nc2c3c(oc12)-c1c[nH]nc1CCC3 (single isomer, unassigned) [Compound 1-2]

>  <test system>
CDC7/DBF4 (Homo sapiens, UniProt O00311)

>  <cat>
not fulfilled

$$$$
>  <molecule>
O=c1[nH]c([C@H]2CCCN2)nc2c3c(oc12)-c1c[nH]nc1CCC3

>  <test system>
CDC7/DBF4 (Homo sapiens, UniProt O00311)

>  <cat>
fulfilled

$$$$
>  <molecule>
O=c1[nH]c(C2CC3CCN2CC3)nc2c3c(oc12)-c1c[nH]nc1CCC3 (single isomer, unassigned) [Compound 1-1]

>  <test system>
CDC7/DBF4 (Homo sapiens, UniProt O00311)

>  <cat>
fulfilled

$$$$
